REPORTED METRIC: melting point

Known results for compounds:
                               smiles_input  endpoint_value
0  CS(=O)(=O)CC(=O)c1[nH]c2cc(Br)c(Cl)cc2c1-c1ccccc1   224 to 225 °C
1  O=C1Cc2cc(OCc3ccc4ccccc4n3)ccc2N1c1ccccc1   148 to 149 °C
2  CC(=O)c1ccc(OCCCN2CCC(c3noc4cc(F)ccc34)CC2)c(N(C)C)c1     94 to 96 °C
3        COC(=O)c1ccc(C#CC#C[Si](C)(C)C)cc1     67 to 68 °C

Here's the next entry for you.
Q: Item ClCc1coc(-c2ccc(Cl)s2)n1 : provide melting point
Ans: 90 to 91 °C

###

Reported melting point values for the following compounds.

>>> print(df.to_string())
                               smiles_input  endpoint_value
0  CCC(CC)n1nnc2cc(C)c(C)c([N+](=O)[O-])c21   106 to 108 °C
1  COc1cccc(CC(=O)O)c1OCCCc1cn(-c2ccc(C(F)(F)F)nn2)nc1C(C)C     92 to 93 °C
2  CCC(=O)C(CCCCCCOc1ccc(OCc2ccccc2)cc1)C(=O)CC     82 to 84 °C
3  Cc1noc(NS(=O)(=O)c2ccccc2-c2c[nH]c3ccccc23)c1C   184 to 186 °C

Q: Item Cc1coc(NC(=O)C2c3ccccc3Oc3ccccc32)n1 : provide melting point
Ans: 219 to 222 °C

Q: Item CCOC(=O)N1CCN(c2cc3nc(C(C)(C)C)sc3cc2[N+](=O)[O-])CC1 : provide melting point
Ans: 100 to 102 °C

Q: Item c1cc2[nH]ncc2cc1OC1CCCCC1 : provide melting point
Ans: 144 to 146 °C

Q: Item C=C(C)COc1ccc(C(=O)C=Cc2ccc(F)cc2)c2oc3ccccc3c(=O)c12 : provide melting point
Ans: 135 to 137 °C

Q: Item O=C(Nc1ccc(OCCCN2CCOCC2)c2ccccc12)c1cc(F)cc(N2CCCCC2)c1 : provide melting point
Ans: 90 to 92 °C

Q: Item CCOc1cc2cc(CO)c(CO)c(-c3ccnc(-n4nc(-c5cccnc5)c5ccccc5c4=O)c3)c2cc1OCC : provide melting point
Ans: 222 °C

###

Reported melting point values for the following molecules.

Known results for molecules:
In [3]: df
Out[3]:
                                   molecule  endpoint_value
0                        CNc1ccccc1C(=O)CCl     65 to 68 °C
1  COc1cc2c(c(C(N)=O)c1OC)CCNCC2c1ccccc1 (configuration not stated)   178 to 180 °C
2  O=C1OCCC1C(=O)c1ccccc1[N+](=O)[O-] (configuration not stated)     75 to 76 °C

Q: Item CCOC(=O)c1cnc2nn(C)cc2c1OCCC(C)C : provide melting point
Ans: 100 to 102 °C

Q: Item Cn1c(OC2CCOC2)nn(C(=O)NS(=O)(=O)c2ccccc2OC(F)(F)F)c1=O (configuration not stated) : provide melting point
Ans: 184 °C

Q: Item O=C(NCCSCc1cccc(Cl)c1)c1c(F)cccc1F : provide melting point
Ans: 41 to 43 °C
